Assign self-cleavage to each entry below.
B1: LINE1-mini (parent)
chain: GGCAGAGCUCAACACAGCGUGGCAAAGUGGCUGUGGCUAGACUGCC

# Variants of: B1
# ASSAY_METHOD_TEXT: self-cleavage, relative activity (ratio to wild type); higher = more cleavage; in vitro, sequencing; the parent is a self-cleaving ribozyme
One number for each entry.

Here is how some variants turned out for self-cleavage.
GGCAAAGCUCAACACAGCGUAGCAAAGUGGCUGUGGCUAGACUGCC [G5A G21A] ... 0.25
GGCAGAGCUCAACACAGCGUGGCAAAGCGGCUGUGGCAAGACUGCC [U28C U38A] ... 0.1
GGCAGAGCUCAUCACGGCGUGGCAAAGUGGCUGUGGCUAGACUGCC [A12U A16G] ... 0.16
GGCAGAGCUCAACACAGCGUGCCAAAGUGGCUGUGACUAGACUGCC [G22C G36A] ... 0.05
GGCAGAGCUCAACACAGCGUGGCAAAGUGGUUGUGGCUAGAAUGCC [C31U C42A] ... 0.09

Please look at the items below and tell me self-cleavage for each one, in order.
1. GGCAGAGUUCAACAGAGCGUGGCAAAGUGGCUGUGGCUAGACUGCC [C8U C15G]
2. GGCACAGCUCAGCACAGCGUGGCAAAGUGGCUGUGGCUAGACUGCC [G5C A12G]

1. 0.09
2. 0.05

Please look at the items below and tell me self-cleavage for each one, in order.
1. GCCGGAGCUCAACACAGCGUGGCAAAGUGGCUGUGGCUAGACUGCC [G2C A4G]
2. GGCAGAGCUCAACACAGCAUGGCAAAGUAGCUGUGGCUAGACUGCC [G19A G29A]
3. GGCAGAGCUCAAGACAGCGUGGCAAAGUGGCUGUCGCUAGACUGCC [C13G G35C]
4. GGCAGGGCUCAACACAGCGUGGCAAUGUGGCUGUGGCUAGACUGCC [A6G A26U]
5. GGCAGAGCUCAACACAGCGUGGCAAAGAGGCUGUGGCUAUACUGCC [U28A G40U]

1. 0.16
2. 1.14
3. 0.81
4. 0.1
5. 0.12

Please look at the items below and tell me self-cleavage for each one, in order.
1. GGCAGUGCUCAACACAGCGUGGCAAAGUGCCUGUGGCUAGACUGCC [A6U G30C]
2. GGCGGAGCUCAACCCAGCGUGGCAAAGUGGCUGUGGCUAGACUGCC [A4G A14C]
3. GCCAGAGCUCAACACAGCGUGGCAAUGUGGCUGUGGCUAGACUGCC [G2C A26U]
4. GGCAGAGCUCAACACAUCGUGGCAAAGUGGCUCUGGCUAGACUGCC [G17U G33C]
5. GGGAGAGCUCAACACAGCGUGGCAAAGUGACUGUGGCUAGACUGCC [C3G G30A]
6. GGCAGAGCUCAACACCGCGUGGCAAAGUGGCUCUGGCUAGACUGCC [A16C G33C]
7. GGCAGAGCUCAACACAGUGUGGCAAAGUGGCUGUAGCUAGACUGCC [C18U G35A]
8. CGCAGAGCUCAACACAGCGUGGCAAAGUGGCUGUGGCUAGACUGGC [G1C C45G]

1. 1.36
2. 0.12
3. 0.09
4. 0.02
5. 0.82
6. 0.05
7. 0.1
8. 0.16

Please look at the items below and tell me self-cleavage for each one, in order.
1. GGCAGAGCUCAGCACAGUGUGGCAAAGUGGCUGUGGCUAGACUGCC [A12G C18U]
2. GGCAGAUCUCAACACAGCGUAGCAAAGUGGCUGUGGCUAGACUGCC [G7U G21A]
3. GGCAGAGCUCAACACAGCGUGGCGAGGUGGCUGUGGCUAGACUGCC [A24G A26G]
4. GGCGGAGCUCAACACAGCGUGGCAAGGUGGCUGUGGCUAGACUGCC [A4G A26G]
5. GGCAGAGCUCAACACAGGGUGGCAAAGUGGCUGUGGUUAGACUGCC [C18G C37U]
6. GGCCGAGCUCAACACAGCGUGGCAAAGUGGCUGUGGCUAGCCUGCC [A4C A41C]
7. GGCAGGGCUCAACACAGCGUGGCAAAGUGGCGGUGGCUAGACUGCC [A6G U32G]

[0.04, 0.14, 0.5, 0.48, 0.09, 0.12, 0.07]

Please look at the items below and tell me self-cleavage for each one, in order.
1. GGCAGAGCUCAACACAGCGUGGCUAUGUGGCUGUGGCUAGACUGCC [A24U A26U]
2. GGCAGAGCUCCACACAGCGUAGCAAAGUGGCUGUGGCUAGACUGCC [A11C G21A]
3. AGCAGAGCUCAACAAAGCGUGGCAAAGUGGCUGUGGCUAGACUGCC [G1A C15A]
4. GGCAGUGCUCAACACAGCGUGGCAAAGUGGCUGUGGCUAGACGGCC [A6U U43G]
5. GGCAAAGCUCAACACCGCGUGGCAAAGUGGCUGUGGCUAGACUGCC [G5A A16C]
6. GGCAGAGCUCAACACAGCGUGGCAAAGUGGCUGGGGCUAGACUGAC [U34G C45A]

1. 1.34
2. 0.26
3. 0.06
4. 0.08
5. 0.1
6. 0.06

Please look at the items below and tell me self-cleavage for each one, in order.
1. GGCAGAGCUCAACACAGCGUGGCAAAGUGGCUGUGGCUAGAUUACC [C42U G44A]
2. GGCAGAGCUCAACACAGCGUUGCAAAGUGGGUGUGGCUAGACUGCC [G21U C31G]

1: 0.16; 2: 0.08

Given GGCAGAGCUCAACACAGCGUGGCAAAGGGGAUGUGGCUAGACUGCC [U28G C31A] , state its recorded self-cleavage.
0.22
